Experiment: gradient 5% acetonitrile 3 min, to 50% in 2 min, to 85% in 15 min, held 3 min, 100 µL/min
Conditions: column: Zorbax Extend-C18 2.1 x 50 mm; eluents: water / acetonitrile, 0.1% formic acid
recordedEndpoint: RP-LC retention time (s)

Cc1ccc(Cn2c(=O)c(N3CCC(NC(=O)NC(C)C)CC3)nc3cccnc32)cc1 : 986
Cc1noc(C)c1S(=O)(=O)N1CCOC(c2ccccc2)C1 (stereo not given) : 882
Cc1ccc(C(=O)N2C(C(=O)NCc3ccco3)COC23CCN(C(=O)C(C)(C)C)CC3)cc1 (stereo not given) : 756
Cn1ncc2c(N3CCCCC3)nc(C(=O)N3CCN(c4ccccc4Cl)CC3)nc21 : 1030
CCc1nnc2c(=O)n(CC(=O)N3CCN(c4ccccc4)CC3)c3cccnc3n12 : 738

----------
Assay: gradient 5% acetonitrile 3 min, to 50% in 2 min, to 85% in 15 min, held 3 min, 100 µL/min
Settings: column: Zorbax Extend-C18 2.1 x 50 mm; eluents: water / acetonitrile, 0.1% formic acid
recordedEndpoint: RP-LC retention time (s)

O=S(=O)(NCc1nc(-c2ccc(-c3csc(C4CC4)n3)cc2)no1)c1ccccc1 : 1100
CC(=O)Nc1cccc(-c2nc(-c3ccc4ncn(C(C)C)c4c3)no2)c1 : 660
CCCNC(=O)C1CCN(Cc2cc3ccccc3n2Cc2ccccc2)CC1 : 704
N#Cc1ccc(C(=O)N2CCOc3ccccc32)cc1 : 864
Cc1ccc2[nH]c(=O)c(CCC(=O)NCCCN3CCc4ccccc4C3)cc2c1 : 629

a = O=C(NC1CCN(c2cc(-c3ccccc3)[nH]n2)C1)c1ccc(F)c(Cl)c1 (stereo not given)
b = CCOC(=O)c1nc(N(CC)c2cc(C)ccc2C)c2ccccc2n1
Kindly compare a with b and tell me which has the lower RP-LC retention time figure. Bench note: the answer is the label of the chosen record.
a

----------
Test: gradient 5% acetonitrile 3 min, to 50% in 2 min, to 85% in 15 min, held 3 min, 100 µL/min
Settings: column: Zorbax Extend-C18 2.1 x 50 mm; eluents: water / acetonitrile, 0.1% formic acid
recordedEndpoint: RP-LC retention time (s)

Example cases with answers are listed next.
CCCn1c(=O)sc2cc(S(=O)(=O)N3CCC(C(=O)Nc4ncccc4C)CC3)ccc21 : 660
CCc1nn(CC)c(=O)c2cc(S(=O)(=O)NCc3ccc(F)c(Cl)c3)cn12 : 1010
O=C(NCCn1ncccc1=O)c1c(F)cccc1F : 584

A = CCc1nc(OCC(=O)Nc2ccc(F)c(Cl)c2)c2ccccc2n1
B = CCc1nccn1Cc1noc(-c2cccs2)n1
Hi, I'm comparing two records. Which one has the lower RP-LC retention time, A or B ? Kindly give the label for the entry you pick.
B
(B: 593 s, A: 888 s)

----------
Experiment: gradient 5% acetonitrile 3 min, to 50% in 2 min, to 85% in 15 min, held 3 min, 100 µL/min
Conditions: column: Zorbax Extend-C18 2.1 x 50 mm; eluents: water / acetonitrile, 0.1% formic acid
recordedEndpoint: RP-LC retention time (s)

Here are 5 compounds together with their reported answers.
CN(C(=O)C1=Cc2ccccc2OC=C1)c1ccccc1 : 1020
Cc1nc(CCNS(=O)(=O)c2cccc(C(F)(F)F)c2)no1 : 807
Cc1cc(-c2nnc(-c3ccccc3)o2)c(C)n1CC(=O)Nc1ccc(F)cc1 : 938
CCCN1CCN(c2cc(C(=O)O)c3cc(NC(=O)c4ccc(Br)cc4)ccc3n2)CC1 : 628
CC1(C(=O)NC2CCCCC2)CN(S(=O)(=O)c2ccccc2)CC(=O)N1c1ccc(F)cc1 (centres undefined) : 959

I = CC(=O)N1c2nc(-c3ccccc3)nn2C2(CCCCC2)[C@@H]2CCCC[C@@H]21
II = COc1ccc(-c2ccc(C#N)c(SCC(=O)N3CCN(C)CC3)n2)cc1
Dear colleague, could you let me know whether I or II has the lower recorded RP-LC retention time? Thanks. Write down the label attached to your selection.
II
(II: 583 s, I: 1390 s)

1 = Cc1noc(C)c1CN1CCN(C(=O)c2ccc3ccccc3n2)CC1
2 = O=S(=O)(c1ccc2nc(N3CCN(c4ccccc4F)CC3)ccc2c1)N1CCCC1
1 or 2 : whose RP-LC retention time is greater? Label of pick, please.
2

P = CCC[C@H](NC(=O)/C(C#N)=C/c1cccc(Br)n1)c1ccccc1
Q = Cc1ccc(C(=O)Nc2nc3c(s2)CN(S(=O)(=O)c2ccccc2)CC3)cc1Br
Could you determine which record has the numerically smaller RP-LC retention time? Candidates: P and Q Selection: enter the item's label.
P
(P: 684 s, Q: 1110 s)

----------
Assay: gradient 5% acetonitrile 3 min, to 50% in 2 min, to 85% in 15 min, held 3 min, 100 µL/min
Conditions: column: Zorbax Extend-C18 2.1 x 50 mm; eluents: water / acetonitrile, 0.1% formic acid
recordedEndpoint: RP-LC retention time (s)

Example cases with answers are listed next.
Cc1ccc(NS(=O)(=O)c2cc(-c3[nH]ncc3C(=O)N3CCOCC3)oc2C)cc1 : 695
CCCC(=O)Nc1nc(-c2ccc3c(c2)N(CC)C(=O)CO3)cs1 : 853

A = COc1ccc(N2CC(c3nc(-c4ccncc4)no3)CC2=O)cc1Cl (stereo not given)
B = Cc1ccc(-c2ccc(-n3nc(C)c(S(=O)(=O)NCCC(C)C)c3C)nn2)cc1
When their RP-LC retention time values are compared, which is larger, A or B ? Identify your pick by its label.
B
(B: 1210 s, A: 752 s)

----------
Assay: gradient 5% acetonitrile 3 min, to 50% in 2 min, to 85% in 15 min, held 3 min, 100 µL/min
Conditions: column: Zorbax Extend-C18 2.1 x 50 mm; eluents: water / acetonitrile, 0.1% formic acid
recordedEndpoint: RP-LC retention time (s)

CC(C)S(=O)(=O)c1ccc(CC(=O)N2CC(c3nc4ccccc4[nH]3)C2)cc1 : 562
CC(C)(NC(=O)c1cc(Cl)c2ccccc2c1O)C(=O)O : 1010
Cc1ccc(S(=O)(=O)N2CCN(c3ccc(-c4ccc(F)cc4)nn3)CC2)s1 : 870
O=C(NCc1cccs1)c1cccc(N2CCNC(c3ccccc3)C2)n1 (stereo not given) : 579
CCN1CCN(CCNC(=O)c2cnc(-c3ccc(C)cc3)nc2-c2ccncc2)CC1 : 598

A = O=C1C=C(NCCc2ccccc2)c2ccccc2C1=O
B = CC(C)n1c(=O)oc2cc(-c3noc(-c4cc(F)ccc4Cl)n3)ccc21
Select one: A or B . Criterion: greater recorded RP-LC retention time. Indicate your choice by writing its label.
B
(B: 1230 s, A: 736 s)

----------
Assay: gradient 5% acetonitrile 3 min, to 50% in 2 min, to 85% in 15 min, held 3 min, 100 µL/min
Details: column: Zorbax Extend-C18 2.1 x 50 mm; eluents: water / acetonitrile, 0.1% formic acid
recordedEndpoint: RP-LC retention time (s)

N#Cc1cccc(-c2cn3c(n2)N(C(=O)c2ccccc2)CCC3)c1 : 708

A = CC(C)CCN1CCC(N2CCN(C(=O)C3CCCC3)CC2)C1=O (centres undefined)
B = COc1ccc2c(c1)-c1nc(NC(=O)c3ccc(F)cc3)sc1CC2
Lower value of RP-LC retention time belongs to which: A or B ? Give the chosen item's label as your response.
A

----------
Assay: gradient 5% acetonitrile 3 min, to 50% in 2 min, to 85% in 15 min, held 3 min, 100 µL/min
Conditions: column: Zorbax Extend-C18 2.1 x 50 mm; eluents: water / acetonitrile, 0.1% formic acid
recordedEndpoint: RP-LC retention time (s)

CCOc1ccccc1NC(=O)N1CCN(CCn2c(C(C)C)nc3cccnc32)CC1 : 617
CNC(=O)N1CCc2nc(-c3ccccc3)ncc2C1 : 678
CCc1cc(N2CCN(C(=O)c3ccc4c(c3)OCO4)CC2)nc2nnc(C)n12 : 607
CCCNC(=O)C1CCN(c2ccc(SCC(=O)NCc3ccc4c(c3)OCO4)nn2)CC1 : 606
CSc1nc2c(c(=O)n1-c1ccc([N+](=O)[O-])cc1)SCC2 : 816

----------
Experiment: gradient 5% acetonitrile 3 min, to 50% in 2 min, to 85% in 15 min, held 3 min, 100 µL/min
Details: column: Zorbax Extend-C18 2.1 x 50 mm; eluents: water / acetonitrile, 0.1% formic acid
recordedEndpoint: RP-LC retention time (s)

Here are 6 molecules together with their reported answers.
COc1cccc(-c2cn3ccn(-c4ccccc4)c(=O)c3n2)c1 : 773
Cn1cc(S(=O)(=O)N2CCCC2)cc1C(=O)N1CCN(c2ccccn2)CC1 : 594
CC(C)N1CCc2c(sc(NC(=O)COc3ccc(Cl)cc3Cl)c2C(N)=O)C1 : 598
Cc1cnc(C(=O)NC2C[C@H]3CC[C@@H](C2)N3C(=O)Cc2c(C)noc2C)cn1 (some centres undefined) : 611
COc1ccc(Cc2nc(-c3ccc4c(c3)nc(C)c(=O)n4C)no2)cc1OC : 894
Cc1ccccc1CNC(=O)C1CCN(S(=O)(=O)c2ccc3c(c2)NC(=O)CO3)CC1 : 777

a = COc1ccc(N2CC(c3nc(-c4ccc(OC)c(OC)c4)no3)CC2=O)cc1Cl (centres undefined)
b = Cn1c(N2CCCC(C(=O)NCCN3CCN(c4ccccc4)CC3)C2)cc(=O)n(C)c1=O (centres undefined)
Param pair: a , b . Output: the one whose RP-LC retention time is numerically greater. Answer by stating the label of the chosen item.
a
